All values here come from patent US3968129A.

Experiment: in vivo
Conditions: iv, ratio of LD50 (mouse i.v.) to DE250 (wake rabbit i.v.)
Attribute: therapeutic index (LD50/DE250)

Compound: CC(C)(C)NCC(O)COc1ccccc1N=[N+]=[N-] (stereo not shown)
therapeutic index (LD50/DE250): 58
--
Compound: CC(C)NCC(O)COc1ccccc1N=[N+]=[N-] (stereo not shown)
therapeutic index (LD50/DE250): 80
--
Compound: CC(C)(C)NCC(O)COc1cccc(N=[N+]=[N-])c1 (stereo not shown)
therapeutic index (LD50/DE250): 60
--
Compound: CC(C)NCC(O)COc1cccc(N=[N+]=[N-])c1 (stereo not shown)
therapeutic index (LD50/DE250): 40
